Entry source: patent US8604016B2

- Measured on: recombinant form of Glutaminase 1 (GAC) (Homo sapiens, UniProt O94925)
- Assay details: Recombinant Enzyme Assay (GAC coupled to GDH, NADH absorbance, no preincubation)
- Type: biochemical
- Test settings: no preincubation; read-out: GAC Delta N2 IC50 no preinc
- Description: Enzymatic reaction was started with the addition of 50 μL of enzyme solution (50 mM Tris-HCl pH 8.0, 0.2 mM EDTA, 150 mM K2HPO4, 0.1 mg/ml BSA, 1 mM DTT, 10 ppm antifoam, 4 units/ml GDH, 4 mM adenosine diphosphate, and 4 nM GAC) and read in a Molecular Devices M5 plate reader at 20° C. The plate reader was configured to read absorbance (λ=340 nm) in kinetic mode for 15 minutes. […]
Readout name: IC50 (nM)
Give bare numbers, in nM.

>  <Compound>
O=C(Nc1nnc(CCCCc2nnc(NC(=O)C(O)c3ccccc3Br)s2)s1)C(O)c1ccccc1Br (stereo not shown)

>  <Unit abbreviation>
nM

>  <Reported value>
570

$$$$

Below are some compounds; for each one, tell me its IC50.
1. O=C(OCC(C(=O)Nc1nnc(CCCCc2nnc(NC(=O)C(COC(=O)C3CCNCC3)c3ccccc3)s2)s1)c1ccccc1)C1CCNCC1 (stereo not shown)
2. N#Cc1ccc(CC(=O)Nc2nnc(CCSCCc3nnc(NC(=O)Cc4ccc(C#N)cc4)s3)s2)cc1
3. O=C(Cc1ccccc1)Nc1nnc(CCSCc2nnc(NC(=O)Cc3ccccn3)s2)s1

Result:
7000
890
170

###

- Measured on: recombinant form of Glutaminase 1 (GAC) (Homo sapiens, UniProt O94925)
- Assay details: Recombinant Enzyme Assay (GAC coupled to GDH, NADH absorbance, no preincubation)
- Type: biochemical
- Test settings: no preincubation; read-out: GAC Delta N2 IC50 no preinc
Readout name: IC50 (nM)
One number for each entry, in nM.

Example cases with answers are listed next.
>  <Molecule>
O=C(Cc1ccccc1Cl)Nc1nnc(CCSCCc2nnc(NC(=O)Cc3ccccc3Cl)s2)s1 [Compound 255]

>  <IC50, nM>
380

$$$$
>  <Molecule>
O=C(Cc1cccc(-n2ccnc2)c1)Nc1nnc(CCCCc2nnc(NC(=O)Cc3cccc(-n4ccnc4)c3)s2)s1 [Compound 363]

>  <IC50, nM>
65

$$$$
>  <Molecule>
CC(C)CC(=O)Nc1nnc(CCSCCc2nnc(NC(=O)CC(C)C)s2)s1 [Compound 4]

>  <IC50, nM>
13000

$$$$

Now look at this entry.
Q: IC50 lookup needed for COc1ccccc1CC(=O)Nc1nnc(CCCCc2nnc(NC(=O)Cc3ccccc3OC)s2)s1 [Compound 264] , thanks.
Result: 72

###

- Assay details: Caco-2 Permeability Assay (bidirectional)
- Format: in vitro ADME
- Test settings: human, Caco-2, pH 7.4, Direction A→B; 1 μM, 120 minutes, pH 7.4
Readout name: recovery at 120 min, 1 μM (%)
Answers are plain numbers, in %.

Example cases with answers are listed next.
>  <Molecule>
O=C(Cc1ccccc1)Nc1ccc(CCCCc2nnc(NC(=O)C(O)c3cccc(Cl)c3)s2)nn1 (stereo not shown) [Compound 318]

>  <Unit abbreviation>
%

>  <recovery at 120 min, 1 μM>
73

$$$$
>  <Molecule>
O=C(Cc1cccc(OC(F)(F)F)c1)Nc1ccc(CCCCc2nnc(NC(=O)[C@@H](O)c3ccccc3)s2)nn1 [Compound 703]

>  <Unit abbreviation>
%

>  <recovery at 120 min, 1 μM>
51

$$$$
>  <Molecule>
O=C(Cc1cccc(OC(F)(F)F)c1)Nc1ccc(CCCCc2nnc(NC(=O)Cc3cccc(OC(F)(F)F)c3)s2)nn1 [Compound 660]

>  <Unit abbreviation>
%

>  <recovery at 120 min, 1 μM>
56

$$$$
>  <Molecule>
O=C(Cc1cccc(OC(F)(F)F)c1)Nc1ccc(CCCCc2nnc(NC(=O)Cc3cccc(F)c3)s2)nn1 [Compound 679]

>  <Unit abbreviation>
%

>  <recovery at 120 min, 1 μM>
34

$$$$
>  <Molecule>
CC(C(=O)Nc1nnc(CCCCc2ccc(NC(=O)Cc3ccccc3)nn2)s1)c1ccccc1 (stereo not shown) [Compound 616]

>  <Unit abbreviation>
%

>  <recovery at 120 min, 1 μM>
65

$$$$
>  <Molecule>
O=C(Cc1cccc(OC(F)(F)F)c1)Nc1ccc(CCCCc2nnc(NC(=O)Cc3ccccn3)s2)nn1 [Compound 670]

>  <Unit abbreviation>
%

>  <recovery at 120 min, 1 μM>
70

$$$$

Now look at this entry.
Q: recovery at 120 min, 1 μM lookup needed for CC(C(=O)Nc1ccc(CCCCc2nnc(NC(=O)Cc3cccc(CNC(=O)OC(C)(C)C)c3)s2)nn1)c1ccccc1 (stereo not shown) [Compound 436] , thanks.
Result: 44
